Target: T1, His-tagged recombinant NTCP protein (human sodium taurocholate cotransporting polypeptide) (human), Q14973
T1 chain: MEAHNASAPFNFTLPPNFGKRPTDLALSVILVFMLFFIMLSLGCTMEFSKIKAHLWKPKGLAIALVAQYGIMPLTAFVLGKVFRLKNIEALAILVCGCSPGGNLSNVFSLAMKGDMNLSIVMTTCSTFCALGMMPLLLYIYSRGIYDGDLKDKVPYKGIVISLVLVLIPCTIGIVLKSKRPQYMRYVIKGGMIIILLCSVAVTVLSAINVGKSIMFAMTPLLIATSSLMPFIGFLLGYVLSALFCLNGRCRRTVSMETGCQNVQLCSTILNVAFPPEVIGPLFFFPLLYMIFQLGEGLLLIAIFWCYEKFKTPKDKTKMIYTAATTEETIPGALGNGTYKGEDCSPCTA
Experiment: SPR (Biacore T200), single-cycle kinetics, His-NTCP on Ni2+-NTA chip, peptide as analyte, 1:1 model
Kindly supply the reported log10(Kd) values for the records listed here.
Heads up, the numbers here are log10 of Kd in nM units.

State the recorded log10(Kd) for this entry: YTYKYSGIWIWIWCT (modifications not checked) [WL1] 2.56

State the recorded log10(Kd) for this entry: YLYLWTWPNTSYAYNVCG (modifications not checked) [NTCP-L4] 1.48

State the recorded log10(Kd) for this entry: YLWIFHQNWYTFDLGCG (modifications not checked) [NTCP-L3] 1.11

State the recorded log10(Kd) for this entry: YTWTWNSAFLYVYCT (modifications not checked) [WL6] 1.56

State the recorded log10(Kd) for this entry: YTWNTHHYYIWLNCG (modifications not checked) [NTCP-L5] 0.60

State the recorded log10(Kd) for this entry: YTWIWGGLYVVYFPCT (modifications not checked) [WD2] 1.15

State the recorded log10(Kd) for this entry: YILVYPELHLFLLYSCG (modifications not checked) [NTCP-D4] 3.36

State the recorded log10(Kd) for this entry: YTWTWHSAYLYVFCT (modifications not checked) [WL3] 1.76

State the recorded log10(Kd) for this entry: YHYWYPEWNTALYIWPCG (modifications not checked) [NTCP-D3] 1.70

State the recorded log10(Kd) for this entry: YNYIYYPSIHIFYLCT (modifications not checked) [PD1] 2.17

State the recorded log10(Kd) for this entry: YFIIVGTWTWTWSCT (modifications not checked) [WD1] 1.18

State the recorded log10(Kd) for this entry: YALIWTWSQYYQYYSCT (modifications not checked) [WD3] 1.18

State the recorded log10(Kd) for this entry: YVWLLWAERSWFLDLGCG (modifications not checked) [NTCP-L2] 2.57

State the recorded log10(Kd) for this entry: YVIWIWPNHFYYCT (modifications not checked) [WL4] 1.62

State the recorded log10(Kd) for this entry: YWWAINPHIHVFTWPCG (modifications not checked) [NTCP-D2] 1.15

Source: patent US20210061859A1
